Each entry below carries its reported log10 of IC50.
tested-target: human Mnk2a (Homo sapiens (Human))
Sequence (Q9HBH9 whole entry): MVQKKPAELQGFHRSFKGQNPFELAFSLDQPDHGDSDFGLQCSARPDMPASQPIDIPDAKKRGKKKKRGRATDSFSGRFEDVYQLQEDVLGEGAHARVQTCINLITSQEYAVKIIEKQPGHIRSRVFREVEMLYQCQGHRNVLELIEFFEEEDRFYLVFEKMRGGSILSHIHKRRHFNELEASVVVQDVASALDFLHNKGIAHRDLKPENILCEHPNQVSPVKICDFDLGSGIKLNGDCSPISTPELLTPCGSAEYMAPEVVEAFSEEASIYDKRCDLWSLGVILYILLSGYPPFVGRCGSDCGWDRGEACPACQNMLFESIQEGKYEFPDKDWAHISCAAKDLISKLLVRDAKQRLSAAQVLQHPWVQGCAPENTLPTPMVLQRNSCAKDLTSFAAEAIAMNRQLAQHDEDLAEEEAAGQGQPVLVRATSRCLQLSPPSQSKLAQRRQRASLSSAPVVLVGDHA
test-name: Mnk2a in vitro kinase assay (indirect competitive fluorescence polarization)
run-parameters: pre-activated GST-Mnk2a 2.5 nM, 20 μM ATP, 30 μM substrate peptide; read-out: MNK2 IC50
Structures can show the parent of a compound that is named as a salt.
Please note: log10 values; quantity IC50; unit nM.

[[record]]
compound = "COCC(CF)Oc1cc(F)ccc1Nc1ncnc2sc(C(=O)O)c(C)c12 (centres unmarked)"
quantitative_result = 1.36

[[record]]
compound = "Cc1c(C(=O)NCCCN(C)C)sc2ncnc(Nc3ccc(F)cc3OCC3CCOCC3)c12"
quantitative_result = 2.90

[[record]]
compound = "COCC(C)Oc1cc(F)ccc1Nc1ncnc2sc(C(=O)NCCCN(C)C)c(C)c12 (centres unmarked)"
quantitative_result = 1.54

[[record]]
compound = "COC(=O)c1sc2ncnc(Nc3ccc(C#N)cc3OC(CF)CF)c2c1C"
quantitative_result = 2.10

[[record]]
compound = "CCNC(=O)C(C)Oc1cc(F)ccc1Nc1ncnc2sc(C(=O)OC)c(C)c12 (centres unmarked)"
quantitative_result = 1.89


May I ask what log10 of IC50 has been recorded for Cc1c(C(=O)NCCCN(C)C)sc2ncnc(Nc3ccc(F)cc3OC(C)CNS(C)(=O)=O)c12 (centres unmarked) ?
1.26

Can you share its log10 of IC50? I mean this compound: COC(=O)c1sc2ncnc(Nc3cccnc3OC(C)CN)c2c1C (centres unmarked) [Compound 11-2, hydrochloride]
2.62

Entry CCNC(=O)C(C)Oc1cc(F)ccc1Nc1ncnc2sc(C(=O)NCCO)c(C)c12 (centres unmarked) : reported log10 of IC50 = ?
1.49
